Items are presented alongside their recorded apparent Kd (screen).
# Target Or System: T1, TNFR1 (Homo sapiens, UniProt P19438)
# T1 chain: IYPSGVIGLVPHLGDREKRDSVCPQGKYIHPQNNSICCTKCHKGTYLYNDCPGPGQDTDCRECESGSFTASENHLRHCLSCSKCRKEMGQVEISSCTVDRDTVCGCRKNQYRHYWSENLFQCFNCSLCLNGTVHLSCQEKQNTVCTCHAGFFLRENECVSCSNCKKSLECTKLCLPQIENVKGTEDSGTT
# Test: yeast display SC50
Dear colleague, please send the value followed by its unit.

Binder	apparent Kd (screen)
E14G (designed binder) SMEEEVEKAAKEYGKKKKEAIEKHLEKLKAKDKEAAERFLKELEEAAKEYAKDEAKTMSEEEAKRRAKKYKEKVLLSELSEEEQKEIKEAEEKLVRTILKYVEEAAK	12.5 nM
A47F (designed binder) SMEEEVEKAAKEYEKKKKEAIEKHLEKLKAKDKEAAERFLKELEEAFKEYAKDEAKTMSEEEAKRRAKKYKEKVLLSELSEEEQKEIKEAEEKLVRTILKYVEEAAK	0.593 nM
A9K (designed binder) SMEEEVEKKAKEYEKKKKEAIEKHLEKLKAKDKEAAERFLKELEEAAKEYAKDEAKTMSEEEAKRRAKKYKEKVLLSELSEEEQKEIKEAEEKLVRTILKYVEEAAK	0.446 nM

Attention now shifts to the item below.
Input S1Q (designed binder) QMEEEVEKAAKEYEKKKKEAIEKHLEKLKAKDKEAAERFLKELEEAAKEYAKDEAKTMSEEEAKRRAKKYKEKVLLSELSEEEQKEIKEAEEKLVRTILKYVEEAAK . Output apparent Kd (screen): 0.539 nM
